These data points were gathered from paper PMC9482650.

System tested: SCRIB_1, Q14160
Sequence (Q14160 718-814): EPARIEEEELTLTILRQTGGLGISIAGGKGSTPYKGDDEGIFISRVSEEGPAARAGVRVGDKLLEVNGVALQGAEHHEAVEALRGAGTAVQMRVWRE
Assay protocol: holdup assay
Set-up: key: below the threshold = too weak to quantify, mostly under pKd 3.1 to 4
Study conditions: plain residues with an end cap or a label only (N-terminal biotin on a linker: ado-ado)
Measurement type: pKd

# input Return pKd for the following binder: APIAGFSSFV [SDK2, Q58EX2]
# output below the threshold

# input Supply recorded pKd for QRPYRRGSEI [KCNJ18, B7U540] here.
# output below the threshold

# input Query pKd for QLSFNTDTLC [ABCA2, Q9BZC7]
# output below the threshold
